assay: Aqueous solubility of compound at pH 7.4; format: physicochemical; settings: buffer
Parameter Measured: solubility (µM)
Numbers only, in µM.

[[record]]
smiles_structure = "CC(C)OC(=O)[C@H](C)N[P@](=O)(OC[C@H]1O[C@@H](n2ccc(=O)[nH]c2=O)[C@](Cl)(Br)[C@@H]1OC(=O)[C@@H](N)C(C)C)Oc1cccc2ccccc12"
number = 4


In the following, a different compound is considered.
## Task Suppose we examine the compound "CC(C)OC(=O)[C@H](C)N[P@](=O)(OC[C@H]1O[C@@H](n2ccc(=O)[nH]c2=O)[C@](Cl)(Br)[C@@H]1O)Oc1cccc2ccccc12" ; what solubility value has been reported?
## Result 17

###

assay: Prodrug conversion in human hepatocytes assessed as nucleotide triphosphate level at 100 uM incubated for 4 hrs followed by compound washout and further incubated in fresh media for 24 hrs; type: ADME, cell-based, Hepatocyte
With a cut-off of 10 µM, any Drug metabolism strictly below it is called label 1; any Drug metabolism meeting it or above is called label 0.

Solved entries (count: 2):
[[record]]
compound = "CC(C)OC(=O)[C@H](C)N[P@](=O)(OC[C@H]1O[C@@H](n2ccc(=O)[nH]c2=O)[C@](C)(F)[C@@H]1O)Oc1ccccc1 [SOFOSBUVIR]"
group = "label 0"

[[record]]
compound = "CCOC(=O)[C@H](C)N[P@](=O)(OC[C@H]1O[C@@H](n2ccc(=O)[nH]c2=O)[C@](Cl)(Br)[C@@H]1O)Oc1ccccc1"
group = "label 0"


## Task In plain terms, does "CC(C)OC(=O)[C@H](C)N[P@](=O)(OC[C@H]1O[C@@H](n2ccc(=O)[nH]c2=O)[C@](Cl)(Br)[C@@H]1O)Oc1cccc2ccccc12" come in under 10 µM for Drug metabolism?
## Result label 1

## Task Proceed to "CC(C)OC(=O)[C@H](C)N[P@](=O)(OC[C@H]1O[C@@H](n2ccc(=O)[nH]c2=O)[C@](Cl)(Br)[C@@H]1OC(=O)[C@@H](N)C(C)C)Oc1ccccc1"
## Result label 0

## Task Proceed to "COc1cccc(O[P@](=O)(N[C@@H](C)C(=O)OC(C)C)OC[C@H]2O[C@@H](n3ccc(=O)[nH]c3=O)[C@](Cl)(Br)[C@@H]2O)c1"
## Result label 0

###

experiment: Aqueous solubility of compound at pH 7.4; type: physicochemical; conditions: buffer
Parameter Measured: solubility

For orientation, consider the following solved cases.
[[record]]
molecule = "CC(C)OC(=O)C(C)(C)NP(=O)(OC[C@H]1O[C@@H](n2ccc(=O)[nH]c2=O)[C@](Cl)(Br)[C@@H]1O)Oc1ccccc1 (stereo partly drawn)"
result = "> 200 µM"

[[record]]
molecule = "CC(C)OC(=O)[C@H](C)N[P@](=O)(OC[C@H]1O[C@@H](n2ccc(=O)[nH]c2=O)[C@](Cl)(Br)[C@@H]1OC(=O)[C@@H](N)C(C)C)Oc1ccccc1"
result = "> 200 µM"


In the following, a different molecule is considered.
## Task Suppose we examine the molecule CC(C)C(=O)OC[C@H](C)NP(=O)(OC[C@H]1O[C@@H](n2ccc(=O)[nH]c2=O)[C@](Cl)(Br)[C@@H]1O)Oc1ccccc1 (stereo partly drawn) ; what solubility value has been reported?
## Result > 200 µM

Hey, just so you know, these numbers are from ChEMBL document CHEMBL4627278.
